# measurement-notes: Retention time of the compound by reverse phase HPLC analysis
# Type: physicochemical
Where a SMILES comes first, the peptide text is derived from it. [ ]: non-standard residue; d: D form. The star is where a group is joined. Hexanoyl(6-N3) = [N-]=[N+]=NCCCCCC(=O)*; Azidoacetyl = [N-]=[N+]=NCC(=O)*; X1 = C#CCCCCOCCOCCOCCOCCOCC(=O)*; Nle = CCCC[C@H](N)C(=O)O
I'd appreciate it if you could supply Retention_time values for the items below.
One number for each entry, in min.

Reference set, count: 3
- compound: "CCCC[C@H](NC(=O)[C@H](Cc1c[nH]c2ccccc12)NC(=O)Cn1cc(CN(Cc2cn(CC(=O)N[C@@H](Cc3c[nH]c4ccccc34)C(=O)N[C@@H](CCCC)C(=O)N[C@@H](CC(=O)O)C(=O)N[C@@H](Cc3ccccc3)C(N)=O)nn2)Cc2cn(CC(=O)N[C@@H](Cc3c[nH]c4ccccc34)C(=O)N[C@@H](CCCC)C(=O)N[C@@H](CC(=O)O)C(=O)N[C@@H](Cc3ccccc3)C(N)=O)nn2)nn1)C(=O)N[C@@H](CC(=O)O)C(=O)N[C@@H](Cc1ccccc1)C(N)=O"
  Retention_time, min: 15.1
- compound: "CCCC[C@H](NC(=O)[C@H](Cc1c[nH]c2ccccc12)NC(=O)CCCCCN=[N+]=[N-])C(=O)N[C@@H](CC(=O)O)C(=O)N[C@@H](Cc1ccccc1)C(N)=O ({Hexanoyl(6-N3)}-W[Nle]DF-NH2)"
  Retention_time, min: 17.7
- compound: "CCCC[C@H](NC(=O)[C@H](Cc1c[nH]c2ccccc12)NC(=O)CN=[N+]=[N-])C(=O)N[C@@H](CC(=O)O)C(=O)N[C@@H](Cc1ccccc1)C(N)=O (Azidoacetyl-W[Nle]DF-NH2)"
  Retention_time, min: 14.6

Now examine the next entry.
Retention_time for C#CCCCCOCCOCCOCCOCCOCC(=O)N[C@@H](Cc1c[nH]c2ccccc12)C(=O)N[C@@H](CCCC)C(=O)N[C@@H](CC(=O)O)C(=O)N[C@@H](Cc1ccccc1)C(N)=O (X1-W[Nle]DF-NH2) is 16.9
